- Tested on: K4 kissing-loop RNA reporter
- assay_text: apparent KD of K4 kissing-loop reporter; higher = weaker reporter binding
- run_parameters: Eterna round: R107; input ligand: tryptophan 2.4 mM
Give Y when the value for apparent KD of K4 kissing-loop reporter is at least 300 nM. Give N when it is less.

Illustrative cases are given below, each with its answer.
AGGAUAUAGUGAUGUUAUAUAAGAAGAAAACGAGGACCGGUACGGCCGCCACUCGAAGCGGCUACUAAGAGGGAAAGAAGAGGAA [ExTryptoA.A] :: N
AAUACCUGAGUGAUGUUCAGGGAAUCAGAAGGAGCGUCAAUUAUGACAGGUAGGUCGCUGAAUACAUGUGUGUAUACACAUGUAC [Arg A SS t4] :: N
UGUGAUGUUGUGAUGUUUAGUGUUGUUGGGCAGGAUAUUGUAGAGGCGAGAAGGGCUUGUGUGAUGUAUGAGUGAUGUUUGUAGU [cffdmullin] :: N
UGACUGGACUGAAGGAGCGGGCGAGACAAAGUCUCGAACUCUUAGUGAUGUUAGGAAAUAACCCAGGUAGGUCGCAGUCUAGUCU :: N
CCGGCCCAGCCGGAUACCAGUGCGCCGCAGGGAACGGCGGGCCCAGAGUGAUGUUCGGGACACCCUUGGCAGCCGCCUGGGUCGU [#2 Same State - Theophylline B Attempt #28 (HarryS)] :: N
AGCCACGACGCGGCCGCCACUGCCAUUAAACGUAAGGCAAAUCUAAUCUUCGAGUGAUGUUCGGGCAGGACCGGGCGGAGACUUG [theeternabot_sameState_KL_Trp_B_18] :: Y
CACGAUGAAUUCUCUAGGAGUGAUGUUUUUCGAGGACCGGUACGGCCGCCACUCGGACGACGAGUGUGGUAGCGGGCUGAAGACU [zgullin] :: Y
CGUUCAUCCUAGGCGUGAGUGAUGUUUACCCGAGGACCGGUACGGCCGCCACUCGUAUGGCGAGAGUUUAGCCAUUUCCAAUAUA [theeternabot_exclusion_KL_Trp_A_17] :: Y

**Q:** Say whether GUGCGGUGGAGGCUACCGCUACUCUGAGAAGGAGCGCAGAUGACUGCAGGUAGGUCGCUUAGAGCUUGCAGUGAUGUUGCAAGUU [Teorzaqu] shows apparent KD of K4 kissing-loop reporter of 300 nM or more.
**A:** N

**Q:** Request: UGUCAUUGGUCGGCCGCCACUAGGACCGGGUAUAGCCUAGUGAUGUUAGUAAGUACGGCCGCCACUAGGACCGGGACCGAUGACU [KL-SSTryp-B21 #DoubleAptamer]
**A:** N

**Q:** Now consider UGACUGGACUGAAGGAGCGCUGAACUCCUAGUGAUGUUAGGAAAACGAGACAAAGUCUCGCGGCAGGUAGGUCGCAGUCUAGUCU .
**A:** N

* * *

- System: K4 kissing-loop RNA reporter;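 further: bound reporter read as fluorescence of individual clusters on recovered sequencing chips by microscopy, with normalized cluster intensities fitted with a binding model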
- assay_text: apparent KD of K4 kissing-loop reporter; higher = weaker reporter binding
- run_parameters: Eterna round: R107; input ligand: arginine 13.2 mM
Label not met if apparent KD of K4 kissing-loop reporter falls below 0.2 µM; label met in every other case.

Take a look at these entries with their results.
UUGAGCCUGACGGAAGUCAGGCUCUGCGAGCGAGGACCGGUACGGCCGCCACUCGGUGCAGUGAUGUUGCAUGGCCGCAAGGCCG [#2 Exclusion - Tryptophan A Attempt #16 (HarryS)] :: met
AACAUUUUCAGAAGGAGCGUGAAUUAUUCAUAAUUAUAUUAUACGAGUGAUGUUCGUAUUUCACAGGUAGGUCGCUGAUAUAGUA [#02 K4 Arginine B Same State] :: not met
UAGAAGAGAAGCGAUACCAGCGAAUGAAGAAGAUGAUGAAGCCAGUGAUGUUGGAAAGAACGCCCUUGGCAGCGCAAGAGAAGAU :: not met
UGUGUUGUUGUGAUGUUUGGUGUUGUAGGGCAGGAUAUCGUAGAGGCGAGAAGGGCUUGUGGGCGGUAUGAGUGAUGUUUGUAGG [cfiuxmullin] :: not met
GUGAUAUCGCAAGGAUAUCCAAUUUCUGCGGAUAAGUGAUGUUUGGCGCCGCCUCAGUUAUGGCAAGGAGAAGGUGCGGCCUAGC [theeternabot_sameState_KL_FMN_B_28] :: met
AGGAGUGAUGUUCCUACAUACACGGUCCGACGAGGACCGGUACGGCCGCCACUCGCGUCCCAGUGAUGUUGGGAUUUGGCGUACG [Exclusion Tryptophan A GF 17] :: not met
UGACUGGACUGAAGGAGCGCUGAACUCCUAGUGAUGUUAGGAAAACGAGACAAAGUCUCGCGGCAGGUAGGUCGCAGUCUAGUCU :: not met
AGCGUCCCUACGGCCGCCACUGGGAGUGAUGUUCCCAGGUUAGGCCUGAGGAUACUAUGGAUCGCCAGGACCGGGUAGCGACCAA [Zaarin] :: not met
AGUCCACUCUAAAGAGUGGACCUAAGGGAUACCAGUGAUGUUGGUCACCCUUGGCAGCCCGCUGUCAUCGAUAAAGAUGGCAGAA :: not met

**Q:** Kindly determine if apparent KD of K4 kissing-loop reporter recorded for UUUGGUUUCUCGGCCGCCACUCGUUGUCUAUCGGCUUCAGGGAUAUAGUGAUGUUAUGUAUAGAAGAGGACCGGGAGAAGGUUCC [ExTryptoB.Dy] is above or exactly 0.2 µM.
**A:** not met

Each recorded value in this set is attributed to the supplement of paper PMC9170038.
